Measured log10(IC50) by item
biological target: IMP-1 beta-lactamase (Serratia marcescens, UniProt P52699); test: Spectrophotometric nitrocefin hydrolysis inhibition assay, IMP-1
Sequence (P52699 19-246, looked up): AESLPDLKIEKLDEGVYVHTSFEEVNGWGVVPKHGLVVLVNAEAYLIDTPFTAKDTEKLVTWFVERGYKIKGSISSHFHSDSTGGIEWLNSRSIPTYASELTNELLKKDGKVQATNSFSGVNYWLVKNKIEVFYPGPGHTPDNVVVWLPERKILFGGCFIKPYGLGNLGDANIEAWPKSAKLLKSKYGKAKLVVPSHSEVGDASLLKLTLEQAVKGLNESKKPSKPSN
Short version: log10 scale, IC50, nM.

Prompt line: Identify log10(IC50) associated with the compound COc1ccc(NS(=O)(=O)/C=C/c2cccc([N+](=O)[O-])c2)cc1OCc1cccc(Cl)c1 [ef-rs-05-080]
Response line: 3.04

Prompt line: Identify log10(IC50) associated with the compound O=S(=O)(/C=C/c1cccc(Cl)c1)Nc1cccc(OCc2cccc(Cl)c2)c1 [ef-rs-08-048]
Response line: 2.69

Prompt line: Identify log10(IC50) associated with the compound COc1cccc(COc2cc(NS(=O)(=O)/C=C/c3cccc(Cl)c3)ccc2OC)c1 [ef-rs-09-018]
Response line: 2.41

Prompt line: Identify log10(IC50) associated with the compound COc1cc(NS(=O)(=O)/C=C/c2cccc(Cl)c2)ccc1OCc1cccc(Cl)c1 [ef-rs-09-029]
Response line: 2.23

For the next question, use this compound.
Prompt line: Identify log10(IC50) associated with the compound O=S(=O)(/C=C/c1cccc(Cl)c1)Nc1ccc(OCc2cccc(Cl)c2)cc1 [ef-rs-09-030]
Response line: 1.80

Source: patent US9730913B2
